studySystem: DestiTA (Desulfomonile tiedjei, UniProt I4C827, T199Q)
Construct: recombinant in E. coli Rosetta(DE3) pLysS, codon-optimized gene in modified pET-21d; N-terminal (His)6-TEV tag cut with TEV protease; homodimer about 68 kDa by gel filtration
Sequence (I4C827 entry or part of it T199Q): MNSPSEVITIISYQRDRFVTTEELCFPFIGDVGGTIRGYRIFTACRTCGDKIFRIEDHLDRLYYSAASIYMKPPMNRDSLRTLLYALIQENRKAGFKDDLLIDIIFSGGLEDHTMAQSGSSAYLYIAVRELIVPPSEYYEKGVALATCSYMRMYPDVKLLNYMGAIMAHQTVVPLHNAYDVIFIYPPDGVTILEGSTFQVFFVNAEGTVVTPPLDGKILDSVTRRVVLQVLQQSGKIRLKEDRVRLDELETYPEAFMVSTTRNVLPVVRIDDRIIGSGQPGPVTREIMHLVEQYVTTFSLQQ
assayDetails: thermal shift assay (ThermoFluor) on apoenzyme, quadratic fit
recordedConditions: 50 mM K-phosphate, pH 8.0; 2 µM apoenzyme incubated with 0.5–500 µM PLP 1 h at 25 °C; covalent (Schiff base to K158)
measuredProperty: pKd
Units for pKd: none; it is -log10 of a concentration expressed in mol/L.

Task item: Given "Cc1ncc(COP(=O)(O)O)c(C=O)c1O" , state its recorded pKd.
Reply: 5.66
